# protocol: chemical genetic growth profiling, strain panel (AID 1159580);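 also: tested at 20 µM; growth read once vehicle control cultures reached saturation at 30 °C; 1 = growth at the plate median or of vehicle wells; lower values mean less growth of the strain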
# measurement.setup: S. cerevisiae deletion strains, growth OD, locus YHR129C, strain ARP1, active compounds read low
The whole screen tested about 5,500 compounds, of which about 2,000 (36%) were called active. Inconclusive results (about 18%) are left out. Some of the results follow.
normalized growth values by entry
Answer with a bare number; do not write a unit.

compound=CN1CCC(=C2c3ccccc3CC(=O)c3sccc32)CC1 readout_value=1

Query compound follows.
Which normalized growth is reported for this compound? NCC1CCC(C(=O)O)CC1 (configuration not stated)
0.986

* * *

# protocol: chemical genetic growth profiling, strain panel (AID 1159580);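 also: tested at 20 µM; growth read once vehicle control cultures reached saturation at 30 °C; 1 = growth at the plate median or of vehicle wells; lower values mean less growth of the strain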
# measurement.setup: S. cerevisiae deletion strains, growth OD, locus YPL078C, strain atp4, active compounds read low
The whole screen tested about 5,500 compounds, of which about 2,000 (36%) were called active. Inconclusive results (about 18%) are left out. The list shows a part of the results.
Quick reference for normalized growth among some compounds
# respond with the number and nothing more

The following compounds have reported results that may help.
compound="CCOC(=O)C(=O)C1(C(=O)OCC)Oc2cc(OC)cc(OC)c2C(=O)C1c1ccccc1 (configuration not stated)" readout_value=0.964
compound="CC(N)CCCC(C)(C)O (configuration not stated)" readout_value=0.975
compound=CCCCNc1cc(C(=O)O)cc(S(N)(=O)=O)c1Oc1ccccc1 readout_value=1
compound=COP(=O)(OC)OC=C(Cl)Cl readout_value=0.99
compound=COc1ccc2c(c1)O[C@@H]1COc3cc(OC)c(OC)cc3[C@@H]1C2=O readout_value=0.635
compound=O=C(O)c1cc2ccccc2c(Cc2c(O)c(C(=O)O)cc3ccccc23)c1O readout_value=1
compound="COc1cc(NC(C)CCCN)c2ncccc2c1 (configuration not stated)" readout_value=0.96
compound=CC(C)(O)[C@@H]1[C@H]2OC(=O)[C@@H]1[C@]1(O)C[C@H]3O[C@]34C(=O)O[C@H]2[C@]14C readout_value=1.01
compound=NCCSSCCN readout_value=0.998
compound="C=Cc1c2[nH]c(c1C)C=c1[nH]c(c(C)c1C=C)=CC1N=C(C=c3[nH]c(c(C)c3CCC(=O)O)=C2)C(CCC(=O)O)=C1C (configuration not stated)" readout_value=0.984

Look at this compound and give its reported normalized growth. COCCc1ccc(OCC(O)CNC(C)C)cc1 (configuration not stated)
0.978

Could you share which normalized growth value was measured for OCCN1C[C@@H](O)[C@@H](O)C(O)C1CO (some centres not stated) ?
1.01

Dear colleague, I am looking for the recorded normalized growth of the following compound: CC(Oc1ccccc1)C(=O)N[C@@H]1C(=O)N2[C@@H]1SC(C)(C)[C@@H]2C(=O)O (some centres not stated)
0.994

Can you look up the measured normalized growth of c1cncc(C2CCCCN2)c1 (configuration not stated) for me?
0.994

Name the recorded normalized growth for CC1=C(C(C)O)C2=NC1C=c1[nH]c(c(C)c1C(C)O)=Cc1[nH]c(c(CCC(=O)O)c1C)C=c1[nH]c(c(C)c1CCC(=O)O)=C2 (configuration not stated) .
0.996

State the recorded normalized growth for this entry: c1ccc(N=Nc2ccccc2)cc1
0.979
